# Measurement Protocol: Cmax in C57BL/6 mouse at 20 mg/kg, po
# Format: ADME, organism-based
# Parameters: dose 20 mg/kg, route oral
# Assay Setup: in vivo
Experimental Endpoint: Cmax (µM)
Just the number please, in µM, no unit attached.

Compound: COc1cccc(C2SC(c3ccc(F)cc3)=NN2C(=O)c2c(F)cc(F)cc2F)c1OC (configuration not stated)
Experimental Endpoint: Cmax
Reported: 6.9

As a next step, examine the compound that follows.
compound COc1cccc(C2SC(c3ccc(Cl)cc3)=NN2C(=O)c2c(F)cc(F)cc2F)c1OC (racemic) , Cmax observed: 4.9

---

# System Under Test: UniProt:P55055
# Sequence (whole entry): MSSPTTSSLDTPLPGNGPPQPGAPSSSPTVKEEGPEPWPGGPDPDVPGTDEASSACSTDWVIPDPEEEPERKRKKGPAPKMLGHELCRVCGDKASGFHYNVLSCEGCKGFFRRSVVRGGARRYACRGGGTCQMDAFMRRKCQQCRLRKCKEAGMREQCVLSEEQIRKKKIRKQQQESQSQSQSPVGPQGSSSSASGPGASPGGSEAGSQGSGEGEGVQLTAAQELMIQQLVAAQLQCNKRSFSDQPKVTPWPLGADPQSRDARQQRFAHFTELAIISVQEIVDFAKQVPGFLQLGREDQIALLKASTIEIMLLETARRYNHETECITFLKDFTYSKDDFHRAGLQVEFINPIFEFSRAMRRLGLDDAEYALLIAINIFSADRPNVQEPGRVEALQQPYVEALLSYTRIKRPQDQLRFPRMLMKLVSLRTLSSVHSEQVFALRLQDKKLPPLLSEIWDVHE
# Measurement Protocol: Agonist activity at GAL-linked human LXRbeta expressed in THP1 cells assessed as stimulation of co-activator recruitment by FRET assay relative to GW-3965
# Format: functional
Rule: yes for Efficacy not less than 90%, no for anything less.

Molecule: O=C(c1c(F)cc(F)cc1F)N1N=C(c2ccc(Cl)cc2)SC1c1cccc2c1OC(F)(F)O2 (centres undefined)
Assigned Label: no
--
Molecule: COc1cc(F)c(C(=O)N2N=C(c3ccc(F)cc3)SC2c2cccc(OC)c2OC)c(F)c1 (centres undefined)
Assigned Label: yes
--
Molecule: COc1cc(F)ccc1C1SC(c2ccc(F)cc2)=NN1C(=O)c1c(F)cc(F)cc1F (centres undefined)
Assigned Label: yes
--
Molecule: COc1cccc(C2SC(c3ccc(F)cc3)=NN2C(=O)c2cc(F)cc(F)c2)c1OC (centres undefined)
Assigned Label: yes

hey, is Efficacy for this one >= 90%? COc1cccc(C2SC(c3ccc(F)cc3)=NN2C(=O)c2c(F)cc(F)cc2F)c1OC (centres undefined)
yes

---

# System Under Test: Oxysterols receptor LXR-alpha (Homo sapiens, UniProt Q13133)
# Measurement Protocol: Activity at human LXRalpha by Gal4 transactivation assay
Experimental Endpoint: pEC50
pEC50 is a log-scale quantity: -log10 of the concentration expressed in molar.

Compound: COc1cccc(C2SC(c3ccc(Cl)cc3)=NN2C(=O)c2c(F)cc(F)cc2F)c1OC (racemic)
Experimental Endpoint: pEC50
Reported: 6.22
--
Compound: COc1cccc([C@H]2SC(c3ccc(Cl)cc3)=NN2C(=O)c2c(F)cc(F)cc2F)c1OC
Experimental Endpoint: pEC50
Reported: 6.46

As a next step, examine the compound that follows.
compound `O=C(O)Cc1cccc(OCCCN(Cc2cccc(C(F)(F)F)c2Cl)CC(c2ccccc2)c2ccccc2)c1` , pEC50 observed: 7.18

---

# System Under Test: Oxysterols receptor LXR-alpha (Homo sapiens) (UniProt Q13133)
# Measurement Protocol: Activity at human LXRalpha by Gal4 transactivation assay relative to GW-3965
Experimental Endpoint: Efficacy (%)
Just the number please, in %, no unit attached.

# example entries with known answers
Compound: COc1cccc(C2SC(c3ccc(Cl)cc3)=NN2C(=O)c2c(F)cc(F)cc2F)c1OC (racemic)
Efficacy, %: 19
//
Compound: COc1cccc([C@H]2SC(c3ccc(Cl)cc3)=NN2C(=O)c2c(F)cc(F)cc2F)c1OC
Efficacy, %: 41

As a next step, examine the compound that follows.
compound `O=C(O)Cc1cccc(OCCCN(Cc2cccc(C(F)(F)F)c2Cl)CC(c2ccccc2)c2ccccc2)c1` , Efficacy observed: 100

---

The following molecules are listed with their measured clearance values.
# Measurement Protocol: Clearance in C57BL/6 mouse at 5 mg/kg, iv
# Type: ADME, organism-based
# Design: dose 5 mg/kg, route intravenous
# Assay Setup: in vivo
Just the number please, in mL/min/kg, no unit attached.

Molecule: COc1cccc(C2SC(c3ccc(F)cc3)=NN2C(=O)c2c(F)cc(F)cc2F)c1OC (configuration not stated)
clearance (mL/min/kg): 2.26

As a next step, examine the molecule that follows.
molecule COc1cccc(C2SC(c3ccc(Cl)cc3)=NN2C(=O)c2c(F)cc(F)cc2F)c1OC (racemic) , clearance observed: 12.2

---

# Measurement Protocol: Bioavailability in C57BL/6 mouse at 20 mg/kg, po
# Type: ADME, organism-based
# Assay Setup: in vivo
Experimental Endpoint: bioavailability (%)
Just the number please, in %, no unit attached.

Compound: COc1cccc(C2SC(c3ccc(F)cc3)=NN2C(=O)c2c(F)cc(F)cc2F)c1OC (configuration not stated)
Experimental Endpoint: bioavailability
Reported: 11

compound COc1cccc(C2SC(c3ccc(Cl)cc3)=NN2C(=O)c2c(F)cc(F)cc2F)c1OC (racemic) , bioavailability observed: 28

---

# System Under Test: Oxysterols receptor LXR-alpha (Homo sapiens) (UniProt Q13133)
# Sequence (whole entry): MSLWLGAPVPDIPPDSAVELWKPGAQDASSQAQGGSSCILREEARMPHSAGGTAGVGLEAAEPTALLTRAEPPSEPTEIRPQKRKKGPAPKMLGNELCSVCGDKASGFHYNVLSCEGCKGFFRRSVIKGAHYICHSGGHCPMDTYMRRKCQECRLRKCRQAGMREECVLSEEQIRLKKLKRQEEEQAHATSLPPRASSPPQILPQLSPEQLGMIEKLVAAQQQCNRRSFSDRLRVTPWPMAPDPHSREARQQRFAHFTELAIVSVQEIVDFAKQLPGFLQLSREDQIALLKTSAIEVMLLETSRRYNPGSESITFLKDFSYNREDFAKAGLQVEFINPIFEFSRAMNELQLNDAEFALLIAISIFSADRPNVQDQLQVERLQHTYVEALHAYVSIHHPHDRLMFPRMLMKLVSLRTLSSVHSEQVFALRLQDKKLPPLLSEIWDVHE
# Measurement Protocol: Agonist activity at GAL-linked human LXRalpha expressed in THP1 cells assessed as stimulation of co-activator recruitment by FRET assay relative to GW-3965
# Assay type: functional
Experimental Endpoint: Efficacy

compound COc1cccc(C2SC(c3ccc(F)cc3)=NN2C(=O)c2c(F)ccc(F)c2F)c1OC (stereo not drawn) , Efficacy observed: < 15%

compound O=C(c1c(F)cc(F)cc1F)N1N=C(c2ccc(Cl)cc2)SC1c1ccccc1OC(F)(F)F (stereo not drawn) , Efficacy observed: < 15%

compound COc1cccc(C2SC(c3ccc(F)cc3)=NN2C(=O)c2c(F)cc(Br)cc2F)c1OC (stereo not drawn) , Efficacy observed: 43%

---

# System Under Test: Oxysterols receptor LXR-alpha (Homo sapiens) (UniProt Q13133)
# Measurement Protocol: Agonist activity at GAL-linked human LXRalpha expressed in THP1 cells assessed as stimulation of co-activator recruitment by FRET assay relative to GW-3965
# Assay type: functional
Rule: class 1 for Efficacy not less than 50%, class 0 for anything less.

Molecule: COc1cccc(C2SC(c3ccc(F)cc3)=NN2C(=O)c2cc(F)cc(F)c2)c1OC (centres undefined)
System Under Test: Oxysterols receptor LXR-alpha (Homo sapiens) (UniProt Q13133)
Assigned Label: class 0

Molecule: COc1cc(F)ccc1C1SC(c2ccc(F)cc2)=NN1C(=O)c1c(F)cc(F)cc1F (centres undefined)
System Under Test: Oxysterols receptor LXR-alpha (Homo sapiens) (UniProt Q13133)
Assigned Label: class 1

Molecule: COc1cccc(C2SC(c3ccc(F)cc3)=NN2C(=O)c2c(F)cc(F)cc2F)c1OC (centres undefined)
System Under Test: Oxysterols receptor LXR-alpha (Homo sapiens) (UniProt Q13133)
Assigned Label: class 1

Molecule: COc1cccc([C@@H]2SC(c3ccc(Cl)cc3)=NN2C(=O)c2c(F)cc(F)cc2F)c1OC
System Under Test: Oxysterols receptor LXR-alpha (Homo sapiens) (UniProt Q13133)
Assigned Label: class 0

Molecule: O=C(O)Cc1cccc(OCCCN(Cc2cccc(C(F)(F)F)c2Cl)CC(c2ccccc2)c2ccccc2)c1
System Under Test: Oxysterols receptor LXR-alpha (Homo sapiens) (UniProt Q13133)
Assigned Label: class 1

hey, is Efficacy for this one >= 50%? COc1cccc(C2SC(c3ccc(Cl)cc3)=NN2C(=O)c2c(F)cc(F)cc2F)c1OC (racemic)
class 0

hey, is Efficacy for this one >= 50%? COc1cccc(C2SC(c3ccc(Cl)cc3)=NN2C(=O)c2ccccc2)c1OC (centres undefined)
class 0

hey, is Efficacy for this one >= 50%? COc1cccc(C2SC(c3ccc(C)cc3)=NN2C(=O)c2c(F)cc(F)cc2F)c1OC (centres undefined)
class 1

hey, is Efficacy for this one >= 50%? COc1cccc(C2SC(c3ccc(F)cc3)=NN2C(=O)c2cc(F)ccc2C)c1OC (centres undefined)
class 0
